Test: Human HepG2 cell viability assay in 384 well format
Assay type: toxicity, cell-based
Set-up: dose 125 nL, time 70.5 hour; concentration not given beside the values
Details: HepG2 cells, read-out: Inhibition
Quantity: cytotoxicity at 70.5 h (%)
# unit: % | format: bare number

These solved cases illustrate the format of a correct answer.
1) Cc1ccccc1C(CC(=O)NCC(N)=O)c1ccccc1 (stereo not drawn) ... -5.12
2) Cc1cc(N2CCCN(C(=O)Cc3cccnc3)CC2)ccn1 ... -6.53
3) Cc1ccc(-c2ccnc(NC(c3ncccc3C)C3CC3)n2)c(C)n1 (stereo not drawn) ... -3.87
4) Cn1c(CCC(=O)N2CCCC3(CNC(=O)O3)C2)nc2cccnc21 (stereo not drawn) ... -14.8
5) CN(Cc1ccncc1)C(=O)NC1CCS(=O)(=O)C1 (stereo not drawn) ... -3.72

Could you now look at the following compound, please?
Q: Which value of cytotoxicity at 70.5 h has been reported for O=C1NCC(c2ccc(Cl)cc2)Cc2[nH]c(CCN3CCOCC3)nc21 (stereo not drawn) in the records?
A: -12.7
